target_entity: Histone deacetylase 4 (Homo sapiens, UniProt P56524)
Sequence (P56524 whole entry): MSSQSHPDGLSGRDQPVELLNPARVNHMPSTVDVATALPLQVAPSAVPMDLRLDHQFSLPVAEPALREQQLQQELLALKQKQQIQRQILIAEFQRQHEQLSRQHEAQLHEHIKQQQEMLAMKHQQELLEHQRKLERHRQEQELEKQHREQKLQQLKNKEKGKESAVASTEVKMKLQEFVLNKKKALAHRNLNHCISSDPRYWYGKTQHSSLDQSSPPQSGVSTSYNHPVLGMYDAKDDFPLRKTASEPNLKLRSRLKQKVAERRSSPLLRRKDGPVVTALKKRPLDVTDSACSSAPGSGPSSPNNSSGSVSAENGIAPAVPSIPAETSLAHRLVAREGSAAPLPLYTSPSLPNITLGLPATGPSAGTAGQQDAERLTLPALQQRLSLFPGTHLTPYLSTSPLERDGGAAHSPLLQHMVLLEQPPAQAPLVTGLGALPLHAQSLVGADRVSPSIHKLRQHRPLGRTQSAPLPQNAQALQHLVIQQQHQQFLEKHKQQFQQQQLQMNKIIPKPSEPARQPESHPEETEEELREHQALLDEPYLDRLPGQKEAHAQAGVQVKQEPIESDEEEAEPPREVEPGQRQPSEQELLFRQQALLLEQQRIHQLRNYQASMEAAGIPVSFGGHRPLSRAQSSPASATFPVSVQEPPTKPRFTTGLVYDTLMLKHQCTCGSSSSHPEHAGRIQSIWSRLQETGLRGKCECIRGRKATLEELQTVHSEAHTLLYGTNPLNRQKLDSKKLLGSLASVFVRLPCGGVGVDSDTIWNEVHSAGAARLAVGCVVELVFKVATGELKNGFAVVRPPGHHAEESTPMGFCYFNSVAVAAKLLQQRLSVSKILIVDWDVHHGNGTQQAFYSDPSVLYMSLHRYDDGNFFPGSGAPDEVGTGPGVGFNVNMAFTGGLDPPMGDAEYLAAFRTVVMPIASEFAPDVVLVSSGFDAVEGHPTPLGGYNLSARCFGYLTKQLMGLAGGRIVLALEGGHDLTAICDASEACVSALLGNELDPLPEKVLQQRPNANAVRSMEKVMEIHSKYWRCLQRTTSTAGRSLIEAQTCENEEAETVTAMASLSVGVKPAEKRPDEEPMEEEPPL
measurement_notes: Inhibition of recombinant human HDAC4 using Boc-Lys(TFA)-AMC as substrate preincubated for 15 mins followed by substrate addition measured after 60 mins by fluorescence-based assay
pIC50: −log10 of the molar value.
reported_metric: pIC50

Please look at this compound and report its pIC50: O=C(NCCCCCCS)c1cc(-c2cccnc2)n[nH]1
< 5.00

Please look at this compound and report its pIC50: O=C(NCCCCCCS)c1cc(-c2cnccn2)n[nH]1
< 5.00

Let's switch to this compound now.
Please look at this compound and report its pIC50: O=C(NCCCCCCS)c1cc(-c2ccncc2)n[nH]1
< 5.00

* * *

Consider the following molecules and their measured pIC50 readings.
target_entity: Histone deacetylase 11 (Homo sapiens)
Sequence (Q96DB2 whole entry): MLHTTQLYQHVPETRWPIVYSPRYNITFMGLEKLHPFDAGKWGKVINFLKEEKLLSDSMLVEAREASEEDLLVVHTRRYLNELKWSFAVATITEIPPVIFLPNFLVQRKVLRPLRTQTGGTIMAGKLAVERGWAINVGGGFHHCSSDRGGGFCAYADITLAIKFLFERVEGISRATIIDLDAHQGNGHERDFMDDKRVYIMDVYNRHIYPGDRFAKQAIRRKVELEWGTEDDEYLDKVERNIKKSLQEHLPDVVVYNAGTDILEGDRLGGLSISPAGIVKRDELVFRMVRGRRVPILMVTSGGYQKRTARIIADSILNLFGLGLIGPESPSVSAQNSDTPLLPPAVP
measurement_notes: Inhibition of recombinant human HDAC11 using Boc-Lys(TFA)-AMC as substrate preincubated for 15 mins followed by substrate addition measured after 60 mins by fluorescence-based assay
pIC50: −log10 of the molar value.

Please look at this molecule and report its pIC50: O=C(NCCCCCCS)c1cc(-c2ccncc2)n[nH]1
< 5.00

Please look at this molecule and report its pIC50: O=C(NCCCCCCS)c1cc(-c2cnccn2)n[nH]1
< 5.00

Please look at this molecule and report its pIC50: O=C(NCCCCCCS)c1cc(-c2cccnc2)n[nH]1
< 5.00

* * *

measurement_notes: Cytotoxicity against HEK293 cells assessed as growth inhibition after 96 hrs by MTT assay
experimental_setup: human
reported_metric: GI50 at 96 h (µM)
Write the number in µM without appending the unit.

Past entries and their recorded results:
Please look at this compound and report its GI50 at 96 h: O=C(NCCCCCCS)c1cc(-c2ccncc2)n[nH]1
17.5

Please look at this compound and report its GI50 at 96 h: O=C(NCCCCCCSSCCCCCCNC(=O)c1cc(-c2ccncc2)n[nH]1)c1cc(-c2ccncc2)n[nH]1
14.8

Please look at this compound and report its GI50 at 96 h: O=C(OCc1ccccc1)SCCCCCCNC(=O)c1cc(-c2ccncc2)n[nH]1
19.7

Let's switch to this compound now.
Please look at this compound and report its GI50 at 96 h: O=C(NCCCCCCSSCCCCCCNC(=O)c1cc(-c2cccnc2)n[nH]1)c1cc(-c2cccnc2)n[nH]1
13.5

* * *

target_entity: Histone deacetylase 1 (Homo sapiens)
Sequence (Q13547 whole entry): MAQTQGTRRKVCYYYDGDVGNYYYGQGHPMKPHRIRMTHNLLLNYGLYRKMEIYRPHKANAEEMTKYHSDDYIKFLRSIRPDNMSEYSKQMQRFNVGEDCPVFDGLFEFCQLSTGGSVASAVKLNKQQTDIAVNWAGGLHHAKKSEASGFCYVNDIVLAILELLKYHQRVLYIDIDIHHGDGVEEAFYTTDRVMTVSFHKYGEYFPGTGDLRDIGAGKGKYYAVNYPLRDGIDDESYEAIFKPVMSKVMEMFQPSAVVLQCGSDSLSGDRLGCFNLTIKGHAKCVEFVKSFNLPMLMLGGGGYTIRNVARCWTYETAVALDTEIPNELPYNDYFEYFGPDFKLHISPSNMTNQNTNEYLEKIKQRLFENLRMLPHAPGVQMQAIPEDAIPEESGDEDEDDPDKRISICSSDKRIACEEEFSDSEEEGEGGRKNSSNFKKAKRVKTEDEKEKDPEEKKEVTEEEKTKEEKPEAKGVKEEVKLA
measurement_notes: Inhibition of recombinant human HDAC1 using Boc-Lys(Ac)-AMC as substrate preincubated for 15 mins followed by substrate addition measured after 60 mins by fluorescence-based assay
Consider the following molecules and their measured pIC50 readings.
Please treat pIC50 as minus the base-10 logarithm of the molar concentration.

Past entries and their recorded results:
Please look at this molecule and report its pIC50: O=C(NCCCCCCS)c1cc(-c2c[nH]c3ccccc23)n[nH]1
6.82

Please look at this molecule and report its pIC50: COc1ccc(-c2cc(C(=O)NCCCCCCS)[nH]n2)cc1OC
6.51

Please look at this molecule and report its pIC50: O=C(NCCCCCCS)c1cc(-c2ccc3ccccc3c2)n[nH]1
6.88

***
Please look at this molecule and report its pIC50: O=C(NCCCCCCS)c1cc(-c2ccc(-c3ccccc3)cc2)n[nH]1
6.65

Please look at this molecule and report its pIC50: O=C(NCCCCCCS)c1cc(-c2ccccn2)n[nH]1
6.91

Please look at this molecule and report its pIC50: O=C(NCCCCCCS)c1cc(-c2cccnc2)n[nH]1
7.28

Please look at this molecule and report its pIC50: O=C(NCCCCCCS)c1cc(-c2ccccc2)n[nH]1
7.01

Please look at this molecule and report its pIC50: O=C(NCCCCCCS)c1cc(C2CCCCC2)n[nH]1
6.48
